target: human NET (SLC6A2) (Homo sapiens); experiment: fluorescence-based neurotransmitter transporter uptake assay, NET
Sequence (P23975 1-628 isoform P23975-2): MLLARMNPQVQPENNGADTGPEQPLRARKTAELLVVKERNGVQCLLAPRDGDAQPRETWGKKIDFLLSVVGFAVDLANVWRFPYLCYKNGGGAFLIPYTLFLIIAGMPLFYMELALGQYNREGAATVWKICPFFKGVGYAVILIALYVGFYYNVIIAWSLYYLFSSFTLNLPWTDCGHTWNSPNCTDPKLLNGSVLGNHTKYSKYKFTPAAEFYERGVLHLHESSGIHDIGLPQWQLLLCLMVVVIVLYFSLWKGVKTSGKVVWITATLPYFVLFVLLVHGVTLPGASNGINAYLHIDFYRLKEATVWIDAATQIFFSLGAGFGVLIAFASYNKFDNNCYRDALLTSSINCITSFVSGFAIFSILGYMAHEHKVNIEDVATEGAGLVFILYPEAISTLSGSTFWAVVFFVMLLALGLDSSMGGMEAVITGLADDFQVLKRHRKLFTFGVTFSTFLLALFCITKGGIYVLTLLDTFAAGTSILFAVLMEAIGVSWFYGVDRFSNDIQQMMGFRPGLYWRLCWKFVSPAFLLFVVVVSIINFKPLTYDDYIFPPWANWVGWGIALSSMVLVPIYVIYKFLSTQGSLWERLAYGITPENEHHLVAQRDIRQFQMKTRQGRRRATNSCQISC
Give measured pKi for each item. Keep answers brief.
Kindly note that pKi refers to -log10 of the concentration in mol/L and answer with the value alone.

Query :: Supply pKi value. Item: Cl.Clc1ccc(CCCOCCCN2CCCCC2)cc1
Result :: 5.60

Query :: Supply pKi value. Item: NC(=O)OC[C@H](N)Cc1ccccc1
Result :: 5.32

----------
QUANTITY: Ki (µM)
# number only, unit µM dropped from output

Query :: Provide Ki, system human SERT (SLC6A4) (Homo sapiens, UniProt P31645), entry Cl.Clc1ccc(CCCOCCCN2CCCCC2)cc1 [Pitolisant]
Result :: 5.79
